The origin of these recorded values is paper PMC5849655.

# METHOD_DESCRIPTION: Physicochemical input parameters of siponimod
# CONDITION_PARAMETERS: SimCYP V16 input; Novartis internal studies; read-out: pKa 2
ENDPOINT: pKa

Inquiry: I would be grateful if you could share the reported pKa for CCc1cc(/C(C)=N/OCc2ccc(C3CCCCC3)c(C(F)(F)F)c2)ccc1CN1CC(C(=O)O)C1 [siponimod, Siponimod] .
Reply text: 8.1

====

# METHOD_DESCRIPTION: Genotype specific clearance of siponimod from PopPK analysis
# CONDITION_PARAMETERS: human, plasma, CYP2C9*1/*1
ENDPOINT: clearance (mL/min)
Kindly provide the numeric value in mL/min only, without the unit symbol.

Inquiry: Value lookup for clearance; key = CCc1cc(/C(C)=N/OCc2ccc(C3CCCCC3)c(C(F)(F)F)c2)ccc1CN1CC(C(=O)O)C1
Reply text: 52

====

# Tested on: CYP2C9
# METHOD_DESCRIPTION: CYP2C9 intrinsic clearance calculated from PopPK genotype specific clearance (SimCYP V16)
# Design: species or system human
# CONDITION_PARAMETERS: human, plasma, CYP2C9*2/*2; total CLp - total CLp*0.207; read-out: CL driven by CYP2C9 (converted)
ENDPOINT: clearance (mL/min)
All answers are understood in mL/min, so give the number only.

Inquiry: So what's the measured clearance for this one? CCc1cc(/C(C)=N/OCc2ccc(C3CCCCC3)c(C(F)(F)F)c2)ccc1CN1CC(C(=O)O)C1
Reply text: 30.8

====

# Tested on: CYP2C9
# METHOD_DESCRIPTION: CYP2C9 intrinsic clearance calculated from PopPK genotype specific clearance (SimCYP V16)
# Set-up: species or system human
# CONDITION_PARAMETERS: human, plasma, oral, CYP2C9*2/*3; total CLp - total CLp*0.207; read-out: CL driven by CYP2C9 (converted)
ENDPOINT: clearance (mL/min)
Answer with a number only, understood to be in mL/min.

Inquiry: Field request: clearance | item: CCc1cc(/C(C)=N/OCc2ccc(C3CCCCC3)c(C(F)(F)F)c2)ccc1CN1CC(C(=O)O)C1
Reply text: 17.8

====

# METHOD_DESCRIPTION: SimCYP model absorption, distribution and elimination inputs for siponimod
# CONDITION_PARAMETERS: human, gut (SimCYP model input); SimCYP V12 input; assumed, set equal to fu
ENDPOINT: fraction unbound
Output spec: single numeric token, no unit.

Inquiry: Suppose we examine the molecule CCc1cc(/C(C)=N/OCc2ccc(C3CCCCC3)c(C(F)(F)F)c2)ccc1CN1CC(C(=O)O)C1 [siponimod, Siponimod] ; what fraction unbound value has been reported?
Reply text: 0.0002

====

# System: CYP2C9
# METHOD_DESCRIPTION: CYP2C9 intrinsic clearance calculated from PopPK genotype specific clearance (SimCYP V16)
# Set-up: species or system human
# CONDITION_PARAMETERS: human, plasma, CYP2C9*1/*2; total CLp - total CLp*0.207; read-out: CL driven by CYP2C9 (converted)
ENDPOINT: clearance
Put down the number, then write its unit next to it.

Inquiry: What value of clearance has been recorded for this entry: CCc1cc(/C(C)=N/OCc2ccc(C3CCCCC3)c(C(F)(F)F)c2)ccc1CN1CC(C(=O)O)C1
Reply text: 41.9 mL/min
